// provenance: patent US20230242534A9

Molecular target: SET Human Serotonin Transporter (Homo sapiens, UniProt P31645)
Construct: Cerep (Eurofins Discovery Services) 439
Sequence (P31645 whole entry): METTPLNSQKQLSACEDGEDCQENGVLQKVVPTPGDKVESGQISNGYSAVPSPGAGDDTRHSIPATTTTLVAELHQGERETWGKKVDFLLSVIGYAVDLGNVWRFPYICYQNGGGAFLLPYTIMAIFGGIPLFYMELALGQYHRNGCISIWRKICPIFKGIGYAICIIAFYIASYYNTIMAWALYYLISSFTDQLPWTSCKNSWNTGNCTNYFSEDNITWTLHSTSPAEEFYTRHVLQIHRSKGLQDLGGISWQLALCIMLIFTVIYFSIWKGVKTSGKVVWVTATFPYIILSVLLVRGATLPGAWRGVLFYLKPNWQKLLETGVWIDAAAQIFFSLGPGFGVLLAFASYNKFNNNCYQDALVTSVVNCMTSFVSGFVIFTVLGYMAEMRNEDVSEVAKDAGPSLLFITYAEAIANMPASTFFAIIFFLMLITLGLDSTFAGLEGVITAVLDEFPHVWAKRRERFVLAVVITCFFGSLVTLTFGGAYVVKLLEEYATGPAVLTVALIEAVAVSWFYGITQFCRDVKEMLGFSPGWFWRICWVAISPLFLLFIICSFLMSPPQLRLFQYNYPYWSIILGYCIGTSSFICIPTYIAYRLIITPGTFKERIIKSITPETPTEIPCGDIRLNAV
Test: 5-HT inhibition assay: Cerep SET Human Serotonin Transporter Binding (Antagonist Radioligand) Assay
Conditions: Table 2, comparator compounds; test compound 10 μM; ligand [3H]imipramine 2 nM; 60 min at RT
attribute measured: inhibition at 10 µM

Study these solved cases before continuing.
C=CC(=O)Nc1ccc(C(=O)Nc2cccc(C(=O)Nc3n[nH]c4c3CN(C(=O)N[C@H](CN(C)C)c3ccccc3)C4(C)C)c2)cc1 [Compound C-6] :: 99.6%
C=CC(=O)Nc1ccc(C(=O)Nc2n[nH]c3c2CN(C(=O)N[C@H](CN(C)C)c2ccccc2)C3(C)C)cc1C(F)(F)F [II-2] :: 98.1%
C=CC(=O)Nc1cccc(C(=O)Nc2ccc(Nc3n[nH]c4c3CN(C(=O)N[C@H](CN(C)C)c3ccccc3)C4(C)C)cc2)c1 [Compound C-1] :: 98.3%

Below: the item to evaluate.
Entry under review: C=CC(=O)Nc1ccc(C(=O)Nc2n[nH]c3c2CN(C(=O)N[C@H](CN(C)C)c2ccccc2)C3(C)C)nc1 [Compound C-10] . Reported inhibition at 10 µM?
98.3%

* * *

Collected inhibition at 10 µM values appear next to each entry.
Target: SET Human Serotonin Transporter (Homo sapiens)
Construct: Cerep (Eurofins Discovery Services) 439
Test: 5-HT inhibition assay: Cerep SET Human Serotonin Transporter Binding (Antagonist Radioligand) Assay
Conditions: Table 1; test compound 10 μM; ligand [3H]imipramine 2 nM; 60 min at RT
Experimental: The 5-HT inhibition assay was performed according to the Cerep SET Human Serotonin Transporter Binding (Antagonist Radioligand) Assay, such as the assay described in www.eurofinsdiscoveryservices.com/catalogmanagement/viewitem//439, accessed Jul. 22, 2019. In some experiments, the assay information is as shown below: Ligand concentration: 2 nM; Non specific: imipramine (10 μM); Incubation: 60 min at RT; Control inhibitor: imipramine; and Test compound concentration: 10 μM. […]
Respond numerically; units are % and should not be typed.

Study these solved cases before continuing.
C=CC(=O)Nc1ccc(C(=O)Nc2nn(C(F)F)c3c2CN(C(=O)N[C@H](CN(C)C)c2ccccc2)C3(C)C)nc1 [Compound I-33] :: 88.8
C=CC(=O)Nc1ccc(C(=O)Nc2nn(C)c3c2CN(C(=O)N[C@H](CN(C)C)c2ccccc2)C3(C)C)cc1 [Compound I-1] :: 26.8
C=CC(=O)Nc1ccc(C(=O)Nc2nn(C(F)F)c3c2CN(C(=O)N[C@H](CN(C)C)c2ccccc2)C3(C)C)cc1 [Compound I-5] :: 81.4

Below: the item to evaluate.
Entry under review: C=CC(=O)Nc1ccc(C(=O)Nc2nn(C)c3c2CN(C(=O)N[C@H](CN(C)C)c2ccccc2)C3(C)C)nc1 [Compound I-8] . Reported inhibition at 10 µM?
50.6

* * *

Biological target: SET Human Serotonin Transporter (Homo sapiens)
Construct: Cerep (Eurofins Discovery Services) 439
Experiment: 5-HT inhibition assay: Cerep SET Human Serotonin Transporter Binding (Antagonist Radioligand) Assay
Conditions: Table 2, comparator compounds; test compound 10 μM; ligand [3H]imipramine 2 nM; 60 min at RT
Collected inhibition at 10 µM values appear next to each entry.
Respond numerically; units are % and should not be typed.

Study these solved cases before continuing.
C=CC(=O)Nc1ccc(C(=O)Nc2n[nH]c3c2CN(C(=O)N[C@H](CN(C)C)c2ccccc2)C32CC2)cc1 :: 95.3
C=CC(=O)Nc1cccc(Nc2n[nH]c3c2CN(C(=O)N[C@H](CN(C)C)c2ccccc2)C3(C)C)c1 :: 98.2
C=CC(=O)Nc1ccc(C(=O)Nc2cccc(Nc3n[nH]c4c3CN(C(=O)N[C@H](CN(C)C)c3ccccc3)C4(C)C)c2)cc1 :: 98

Entry under review: C=CC(=O)N1CCC[C@H](C(=O)Nc2n[nH]c3c2CN(C(=O)N[C@H](CN(C)C)c2ccccc2)C3(C)C)C1 . Reported inhibition at 10 µM?
94.3

Entry under review: C=CC(=O)Nc1ccc(C(=O)N2CCC(Nc3n[nH]c4c3CN(C(=O)N[C@H](CN(C)C)c3ccccc3)C4(C)C)CC2)cc1 . Reported inhibition at 10 µM?
96.4

Entry under review: C=CC(=O)Nc1ccc(C(=O)Nc2n[nH]c3c2CN(C(=O)N[C@H](CN(C)C)c2ccccc2)[C@@H]3C(C)C)cc1 . Reported inhibition at 10 µM?
74.5
